Values compiled from the RNAGym collection of RNA variant scans (doi:10.7554/elife.80360).

Record form. Attribute: self-cleavage. Fill in for each entry.
B1: HDV Ribozyme (parent)
chain: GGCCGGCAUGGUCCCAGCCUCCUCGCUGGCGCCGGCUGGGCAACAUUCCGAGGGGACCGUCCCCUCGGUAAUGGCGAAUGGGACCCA

Variants of: B1
Experiment: self-cleavage, relative activity (ratio to wild type); higher = more cleavage; co-transcriptional
Lab note: jot down the number only; don't add units.

Asked: Quickly give me recorded self-cleavage for G81A G82U
Given back: 0.225

Asked: Quickly give me recorded self-cleavage for U37A C64G
Given back: 0.354

Asked: Quickly give me recorded self-cleavage for A8G A51C
Given back: 0.962

Asked: Quickly give me recorded self-cleavage for C7A G29C
Given back: 0.0707

Asked: Quickly give me recorded self-cleavage for G11C G39C
Given back: 0.0489

Asked: Quickly give me recorded self-cleavage for U46G G80C
Given back: 0.185

Asked: Quickly give me recorded self-cleavage for A71C C75U
Given back: 0.199

Asked: Quickly give me recorded self-cleavage for C49A A71G
Given back: 0.81

Asked: Quickly give me recorded self-cleavage for A8C C13U
Given back: 0.356

Asked: Quickly give me recorded self-cleavage for C44U G68C
Given back: 0.529

Asked: Quickly give me recorded self-cleavage for G11C C18U
Given back: 0.0992

Asked: Quickly give me recorded self-cleavage for C18A G81A
Given back: 0.0755

Asked: Quickly give me recorded self-cleavage for G5U A51U
Given back: 0.688

Asked: Quickly give me recorded self-cleavage for C41A A78C
Given back: 0.185

Asked: Quickly give me recorded self-cleavage for U23C A42U
Given back: 0.415

Asked: Quickly give me recorded self-cleavage for G6C G31U
Given back: 0

Asked: Quickly give me recorded self-cleavage for C21U C63U
Given back: 0.341
